B1: APBB1IP (parent)
chain: PPEPLSQVSMWDQRWQDHQPLLPI

Variants of: B1
Experiment: protein stability index of a GFP-peptide fusion (GPS, HEK-293T) (PSI 1-6); higher = more stable;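 note: lentivirally expressed fusions sorted by FACS into six bins by GFP to DsRed ratio, PSI derived from sequencing read proportions per bin multiplied by bin number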
Conditions: c terminus: a fixed tail appended
The threshold is inclusive: protein stability index of exactly 3 counts as 1; values below receive 0.

VARIANT_NOTATION | LABEL_CLASS
L5S | 1
Q16A | 0
Q19W | 0
M10W | 1
P20A | 0
P4Y | 0
S6I | 0
L22H | 1
P2G | 0
I24N | 1
W11R | 1
W11F | 1
W15A | 1
L21E | 1
W15M | 1
D12I | 0
L5K | 0
D12M | 0
P2R | 0
Q19Y | 0
V8L | 0
H18G | 1
I24E | 1
H18M | 0
S9L | 0
E3C | 0
Q13A | 0
I24C | 0
W15Y | 1
E3Q | 0
L22Q | 1
S9D | 1
W15F | 1
Q7G | 1
Q19K | 0
S9P | 1

Values compiled from the supplement of paper PMC10567573.
